Quick list: EC50 per entry.
- assay_system: Aryl hydrocarbon receptor (Homo sapiens, UniProt P35869)
- Sequence (P35869 whole entry): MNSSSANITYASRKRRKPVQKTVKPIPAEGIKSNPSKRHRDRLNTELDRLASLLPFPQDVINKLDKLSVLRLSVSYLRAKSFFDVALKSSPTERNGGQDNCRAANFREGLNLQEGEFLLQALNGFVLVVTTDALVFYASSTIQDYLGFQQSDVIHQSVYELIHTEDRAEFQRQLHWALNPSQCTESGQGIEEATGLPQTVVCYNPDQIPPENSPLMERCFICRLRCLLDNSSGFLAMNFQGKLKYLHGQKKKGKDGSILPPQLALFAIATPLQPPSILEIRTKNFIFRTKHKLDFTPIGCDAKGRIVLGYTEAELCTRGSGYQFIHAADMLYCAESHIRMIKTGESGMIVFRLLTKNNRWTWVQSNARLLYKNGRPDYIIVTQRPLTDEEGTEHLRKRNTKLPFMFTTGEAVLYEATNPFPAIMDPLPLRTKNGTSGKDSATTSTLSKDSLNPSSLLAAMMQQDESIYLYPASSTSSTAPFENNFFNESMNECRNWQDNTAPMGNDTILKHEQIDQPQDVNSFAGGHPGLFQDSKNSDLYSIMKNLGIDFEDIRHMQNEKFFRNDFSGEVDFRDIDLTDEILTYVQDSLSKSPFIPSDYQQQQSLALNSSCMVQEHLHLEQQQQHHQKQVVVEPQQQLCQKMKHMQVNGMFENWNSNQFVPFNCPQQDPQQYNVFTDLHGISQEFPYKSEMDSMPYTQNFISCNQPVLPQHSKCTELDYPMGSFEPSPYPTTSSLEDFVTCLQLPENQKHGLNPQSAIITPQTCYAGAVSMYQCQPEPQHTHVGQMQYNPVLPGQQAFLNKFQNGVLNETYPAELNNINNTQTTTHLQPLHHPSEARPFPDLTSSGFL
- protocol_notes: Luminescence-based cell-based high throughput dose response assay for activators of the Aryl Hydrocarbon Receptor (AHR). [Related pubchem assays: 2796 (Primary screen (AHR activators in singlicate)), 2845 (Confirmation screen (AHR activators in triplicate)), 434939 (Counterscreen (PXR activators in triplicate)), 2804 (Summary (AHR activators))]
- Assay type: ADME
Calls of active or inactive are those of the source.
assay_readout: EC50

1. CC(=O)Nc1cccc2c1C(=O)N(c1ccc(C)cc1)C2=O	1.09 µM (active)
2. COc1cccc2c(=O)c3cccc(N)c3[nH]c12	> 91.8 µM (not active)
3. CC(=O)Nc1cccc(OCC(=O)Nc2ccc(F)cc2)c1	10.6 µM (not active)
4. CCc1cc(/C(Cc2ccc3ccccc3n2)=N\O)c(O)cc1O	> 3.39 µM (active)
5. Cc1nc(N)nc(Nc2ccc(Cl)cc2)c1Br	0.351 µM (active)

* * *

Record set of AC50 for target or system Cytochrome P450 2D6 (Homo sapiens).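 Also: CYP2D6 member of a cytochrome P450 panel assay.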
assay_readout: AC50

1) CCC(C)[C@H](NC(=O)NC1CCN(Cc2ccccc2)CC1)C(=O)OC (stereo partly specified)	28.2 µM (inconclusive)
2) CS(=O)(=O)Nc1cccc(-c2nc(Nc3ccc(F)cc3)c3ccccc3n2)c1	39.8 µM (inconclusive)
3) CCNC(=O)O/N=C(\C)c1sc(-c2ccccc2)nc1C	20 µM (inconclusive)
4) c1cnc2ccc(C(c3nnnn3C3CCCC3)N3CCN4CCCC4C3)cc2c1 (stereo unspecified)	22.4 µM (inconclusive)
5) COc1cccc(CNc2ccc3nc(-c4ccc(N)cc4)c(OC)n3n2)c1	10 µM (inconclusive)
6) CC(C)Cn1cnc2c(SCc3ccc(Cl)cc3Cl)nc(N)nc21	7.94 µM (inconclusive)
7) c1ccc(-c2ccc(N3CCCC4(CCNCC4)C3)cc2)cc1	20 µM (inconclusive)
8) Cc1cc(C)nc(NC(=O)/C=C/c2ccc(Cl)cc2Cl)c1	20 µM (inconclusive)
9) CNc1nc(-c2ccccc2Cl)nc2ccccc12	39.8 µM (inconclusive)
10) O=C(CCC(=O)c1cccs1)OCC(=O)N1CCN(C(=O)c2ccco2)CC1	39.8 µM (inconclusive)
11) C[As+](C)(c1ccc(Br)c([N+](=O)[O-])c1)c1ccc(Br)c([N+](=O)[O-])c1	1.58 µM (inconclusive)

* * *

Each entry below lists one item and its recorded IC50 value.
- assay_system: Leucine aminopeptidase (Plasmodium falciparum 3D7, UniProt Q8IL11)
- Sequence (Q8IL11 whole entry): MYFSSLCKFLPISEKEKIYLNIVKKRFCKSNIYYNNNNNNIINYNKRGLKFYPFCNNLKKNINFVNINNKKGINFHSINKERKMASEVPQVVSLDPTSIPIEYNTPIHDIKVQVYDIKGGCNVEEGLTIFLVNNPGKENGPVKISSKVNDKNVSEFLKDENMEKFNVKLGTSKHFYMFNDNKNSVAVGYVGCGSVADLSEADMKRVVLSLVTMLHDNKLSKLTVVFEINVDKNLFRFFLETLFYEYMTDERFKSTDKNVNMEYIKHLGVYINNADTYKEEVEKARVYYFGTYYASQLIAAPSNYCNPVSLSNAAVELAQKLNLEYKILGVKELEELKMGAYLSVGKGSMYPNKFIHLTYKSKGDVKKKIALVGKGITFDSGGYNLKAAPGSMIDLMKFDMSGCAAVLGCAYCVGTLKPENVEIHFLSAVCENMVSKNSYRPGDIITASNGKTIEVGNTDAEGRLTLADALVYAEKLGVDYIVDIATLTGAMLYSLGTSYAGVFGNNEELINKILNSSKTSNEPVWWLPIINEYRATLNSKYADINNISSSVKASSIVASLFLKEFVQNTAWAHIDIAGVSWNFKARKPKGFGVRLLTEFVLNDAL
- protocol_notes: P. falciparum M17LAP inhibitors, primary screen, biochemical, fluorogenic H-Leu-NHMec substrate, 1536-well (AID 1619)
- Format: functional
Activity calls are given as the source filed them.
assay_readout: IC50

1) COc1cccc(/C=N/NC(=O)CC2C(=O)NN=C2C)c1O (stereo unspecified)	92.1 µM (active)
2) CCc1c(O)nc(SCC(=O)Nc2ccccc2)n(C(C)CC)c1=O (stereo unspecified)	17.8 µM (active)
3) O=C(CSc1nccc(=O)[nH]1)Nc1ccc(F)c(Cl)c1	6.03 µM (active)
4) Cc1ccc(Nc2cnn(C34CC5CC(CC(CC(=O)O)(C5)C3)C4)c(=O)c2Cl)c(Cl)c1	24.4 µM (active)
5) COC(=O)c1c(-c2ccco2)csc1NC(=O)C1CC=CCC1C(=O)O (stereo unspecified)	1.39 µM (active)
6) Cc1ccc(C)c(NC(=O)CSc2ncnc3nc[nH]c23)c1	50.8 µM (active)
7) O=C(NCc1ccco1)C(=O)c1cn(CC(=O)N2CCCC2)c2ccccc12	73.3 µM (active)
8) O=C(O)c1cccc(Cn2c(Cl)c(/C=N/NC(=O)c3ccccc3)sc2=O)c1	20.8 µM (active)
9) COc1ccc(S(=O)(=O)Nc2ccc(O)c(Sc3nnc[nH]3)c2)cc1	25 µM (active)
10) COc1ccc(OC)c(NC(=O)C2C(C(=O)O)C3(Cl)C(Cl)=C(Cl)C2(Cl)C3(Cl)Cl)c1 (stereo unspecified)	< 1 µM (active)
11) CCCc1n[nH]c2c1C(CCc1ccccc1)C(C#N)=C(N)O2 (stereo unspecified)	55.7 µM (active)

* * *

- assay_system: Orexin/Hypocretin receptor type 1 (Homo sapiens, UniProt O43613)
- Sequence (O43613 whole entry): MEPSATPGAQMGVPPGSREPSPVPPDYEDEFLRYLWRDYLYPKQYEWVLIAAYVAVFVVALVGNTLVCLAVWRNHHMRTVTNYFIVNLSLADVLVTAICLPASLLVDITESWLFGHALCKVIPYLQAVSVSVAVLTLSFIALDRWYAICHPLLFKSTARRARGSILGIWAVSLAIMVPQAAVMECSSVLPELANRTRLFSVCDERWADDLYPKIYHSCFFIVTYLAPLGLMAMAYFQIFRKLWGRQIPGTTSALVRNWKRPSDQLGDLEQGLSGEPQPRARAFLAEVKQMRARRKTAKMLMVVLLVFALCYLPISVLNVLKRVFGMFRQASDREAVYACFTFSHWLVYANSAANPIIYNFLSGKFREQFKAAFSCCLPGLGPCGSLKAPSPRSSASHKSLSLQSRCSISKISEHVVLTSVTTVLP
- protocol_notes: Fluorescence-based cell-based high throughput dose response assay for antagonists of the orexin 1 receptor (OX1R; HCRTR1). [Related pubchem assays (depositor defined):AID434989, AID435008, AID463079, AID485270, AID492963, AID492964, AID492965, AID493232, AID504717, AID504718]
- Format: functional
The source made the active and inactive calls.
Classes used: Y for active, N for inactive

1) c1ccc(CN2CCN(C3CCCSc4ccccc43)CC2)cc1 (centres undefined)	N
2) COc1ccc(OC)c(S(=O)(=O)NCC(c2ccco2)N2CCc3ccccc32)c1 (centres undefined)	Y
3) CCOc1ccccc1C(=O)NCCNC(=O)c1ccccc1OCC	Y
4) C=CCn1c(SCc2ccc(C(=O)Nc3nccs3)cc2)nnc1-c1ccc(C)c(Cl)c1	Y

* * *

- assay_system: Keap1/Nrf2 (Homo sapiens)
- Sequence (Q16236 whole entry): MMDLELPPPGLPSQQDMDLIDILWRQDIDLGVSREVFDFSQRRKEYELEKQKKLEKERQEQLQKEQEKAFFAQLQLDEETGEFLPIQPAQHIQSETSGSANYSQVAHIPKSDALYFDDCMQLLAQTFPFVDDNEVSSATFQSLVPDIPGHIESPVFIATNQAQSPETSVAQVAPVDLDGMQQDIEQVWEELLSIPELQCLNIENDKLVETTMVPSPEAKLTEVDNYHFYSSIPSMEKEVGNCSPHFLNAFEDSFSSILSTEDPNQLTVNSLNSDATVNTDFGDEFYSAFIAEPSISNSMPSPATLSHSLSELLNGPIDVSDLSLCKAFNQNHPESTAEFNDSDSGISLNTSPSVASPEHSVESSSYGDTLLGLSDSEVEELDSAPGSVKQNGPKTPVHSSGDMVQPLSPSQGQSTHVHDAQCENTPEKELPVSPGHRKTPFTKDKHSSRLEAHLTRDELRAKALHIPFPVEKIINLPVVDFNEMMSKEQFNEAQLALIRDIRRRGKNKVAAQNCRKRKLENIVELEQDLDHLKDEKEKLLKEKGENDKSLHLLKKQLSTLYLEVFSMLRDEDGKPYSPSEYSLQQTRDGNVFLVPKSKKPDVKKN
- Sequence (Q14145 whole entry): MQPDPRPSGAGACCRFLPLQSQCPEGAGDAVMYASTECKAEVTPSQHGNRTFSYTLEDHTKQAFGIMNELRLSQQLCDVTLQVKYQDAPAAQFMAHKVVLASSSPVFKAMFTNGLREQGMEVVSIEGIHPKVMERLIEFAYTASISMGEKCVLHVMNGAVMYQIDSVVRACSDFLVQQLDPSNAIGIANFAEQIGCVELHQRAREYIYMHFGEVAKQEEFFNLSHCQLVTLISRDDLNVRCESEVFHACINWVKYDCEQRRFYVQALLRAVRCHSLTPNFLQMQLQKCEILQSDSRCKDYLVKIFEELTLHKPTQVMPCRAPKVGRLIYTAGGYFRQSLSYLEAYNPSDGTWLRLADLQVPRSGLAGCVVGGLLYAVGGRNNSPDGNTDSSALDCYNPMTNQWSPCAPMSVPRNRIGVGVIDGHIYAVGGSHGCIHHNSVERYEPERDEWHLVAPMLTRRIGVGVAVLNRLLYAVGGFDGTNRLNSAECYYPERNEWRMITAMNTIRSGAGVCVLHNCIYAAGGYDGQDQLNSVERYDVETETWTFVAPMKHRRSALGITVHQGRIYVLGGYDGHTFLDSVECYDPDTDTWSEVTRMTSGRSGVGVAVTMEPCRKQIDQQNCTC
- protocol_notes: Keap1-Nrf2 protein-protein interaction inhibitors, dose response, biochemical, fluorescence polarization, cherry-picked samples (AID 588683)
Activity calls are given as the source filed them.
AC50 values for the molecules below.
assay_readout: AC50

1) Nc1ccc2nc3c(O)nc(S)nc3nc2c1	3.55 µM (active)
2) Nc1ccc2c3c(cccc13)-c1ccccc1-2	2.01 µM (active)
3) CC1=C[C@@H]2c3cccc4[nH]cc(c34)C[C@H]2N(C)C1	38.4 µM (active)
4) COc1ccc2nc3ccccc3nc2c1NC(=O)c1ccccc1Cl	29.2 µM (active)
5) COc1ccc(Br)cc1CNCC1CCCO1 (stereo not given)	> 52 µM (inactive)

* * *

- assay_system: Fatty acid synthase (Homo sapiens, UniProt P49327)
- Sequence (P49327 whole entry, the tested form may be a part): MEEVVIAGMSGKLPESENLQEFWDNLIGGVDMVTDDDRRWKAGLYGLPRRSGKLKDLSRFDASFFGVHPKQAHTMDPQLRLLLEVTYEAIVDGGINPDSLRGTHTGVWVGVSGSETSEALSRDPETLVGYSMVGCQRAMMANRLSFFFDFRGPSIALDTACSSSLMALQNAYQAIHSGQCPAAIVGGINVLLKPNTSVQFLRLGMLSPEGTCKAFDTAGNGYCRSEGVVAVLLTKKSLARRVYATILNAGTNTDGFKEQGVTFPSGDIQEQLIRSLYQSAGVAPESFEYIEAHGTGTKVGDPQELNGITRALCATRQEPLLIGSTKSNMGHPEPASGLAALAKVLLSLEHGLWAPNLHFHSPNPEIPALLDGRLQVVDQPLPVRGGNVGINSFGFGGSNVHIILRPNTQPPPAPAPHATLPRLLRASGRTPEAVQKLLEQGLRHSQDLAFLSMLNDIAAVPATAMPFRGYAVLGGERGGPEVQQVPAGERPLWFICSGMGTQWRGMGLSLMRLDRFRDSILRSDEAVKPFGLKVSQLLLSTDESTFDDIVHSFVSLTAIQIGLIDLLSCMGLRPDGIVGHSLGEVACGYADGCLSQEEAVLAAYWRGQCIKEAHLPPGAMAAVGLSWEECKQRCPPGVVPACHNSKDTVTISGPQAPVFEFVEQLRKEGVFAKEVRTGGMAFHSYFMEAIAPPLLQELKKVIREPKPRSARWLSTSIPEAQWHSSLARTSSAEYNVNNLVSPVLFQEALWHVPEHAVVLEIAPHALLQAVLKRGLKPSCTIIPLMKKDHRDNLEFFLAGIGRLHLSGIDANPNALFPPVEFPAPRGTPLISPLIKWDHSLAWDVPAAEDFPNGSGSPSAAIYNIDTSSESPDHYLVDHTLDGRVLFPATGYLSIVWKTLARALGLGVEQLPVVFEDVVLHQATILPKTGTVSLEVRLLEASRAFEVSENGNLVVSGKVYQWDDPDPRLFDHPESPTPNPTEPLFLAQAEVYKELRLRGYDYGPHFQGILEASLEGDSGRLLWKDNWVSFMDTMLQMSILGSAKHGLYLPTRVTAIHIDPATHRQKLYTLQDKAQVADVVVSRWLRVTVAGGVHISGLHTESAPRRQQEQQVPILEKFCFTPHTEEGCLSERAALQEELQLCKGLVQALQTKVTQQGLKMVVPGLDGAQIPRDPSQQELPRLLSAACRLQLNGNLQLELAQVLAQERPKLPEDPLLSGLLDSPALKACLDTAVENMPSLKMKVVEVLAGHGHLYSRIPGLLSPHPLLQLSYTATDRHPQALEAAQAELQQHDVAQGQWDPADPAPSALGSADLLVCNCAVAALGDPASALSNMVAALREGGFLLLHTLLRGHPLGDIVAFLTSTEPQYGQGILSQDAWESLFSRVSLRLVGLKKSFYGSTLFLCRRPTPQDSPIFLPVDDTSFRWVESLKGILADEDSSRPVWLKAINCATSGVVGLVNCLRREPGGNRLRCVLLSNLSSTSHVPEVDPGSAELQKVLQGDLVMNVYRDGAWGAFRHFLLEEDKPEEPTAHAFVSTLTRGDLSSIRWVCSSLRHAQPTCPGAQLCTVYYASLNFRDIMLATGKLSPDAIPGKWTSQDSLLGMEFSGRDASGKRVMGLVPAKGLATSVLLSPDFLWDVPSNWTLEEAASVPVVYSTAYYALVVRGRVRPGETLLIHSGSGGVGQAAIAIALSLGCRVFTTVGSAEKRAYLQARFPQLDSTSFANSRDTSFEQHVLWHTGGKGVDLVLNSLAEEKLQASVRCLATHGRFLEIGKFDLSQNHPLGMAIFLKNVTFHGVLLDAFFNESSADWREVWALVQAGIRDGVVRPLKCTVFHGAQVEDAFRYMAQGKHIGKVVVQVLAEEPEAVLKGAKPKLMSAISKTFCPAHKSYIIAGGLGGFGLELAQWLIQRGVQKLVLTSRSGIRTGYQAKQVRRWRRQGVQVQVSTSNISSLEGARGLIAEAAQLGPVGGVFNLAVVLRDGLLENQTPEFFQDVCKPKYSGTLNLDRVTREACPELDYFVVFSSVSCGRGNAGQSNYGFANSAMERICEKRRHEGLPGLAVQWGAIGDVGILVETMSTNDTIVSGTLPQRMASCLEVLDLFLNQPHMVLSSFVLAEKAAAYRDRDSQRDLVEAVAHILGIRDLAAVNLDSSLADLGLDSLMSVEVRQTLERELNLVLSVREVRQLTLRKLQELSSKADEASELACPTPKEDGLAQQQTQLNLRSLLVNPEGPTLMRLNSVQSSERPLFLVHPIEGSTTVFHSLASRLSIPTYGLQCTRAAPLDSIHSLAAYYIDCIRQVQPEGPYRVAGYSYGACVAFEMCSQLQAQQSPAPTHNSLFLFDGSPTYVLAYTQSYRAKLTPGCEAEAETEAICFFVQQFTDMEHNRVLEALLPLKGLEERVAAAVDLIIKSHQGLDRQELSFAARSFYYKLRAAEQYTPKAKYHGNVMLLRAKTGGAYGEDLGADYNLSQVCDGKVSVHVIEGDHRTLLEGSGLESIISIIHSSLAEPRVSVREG
- protocol_notes: FAS thioesterase domain inhibitors, dose response, biochemical, kinetic fluorescence intensity (AID 624326);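 also: rate of fluorescence rise from hydrolysis of a fluorogenic O-methyl fluorescein ester substrate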
- Type: functional
The source made the active and inactive calls.
assay_readout: IC50

1. CCOC(=O)C1CCN(C(=O)c2ccc3c(=O)n4nc(Nc5ccccc5OC)sc4nc3c2)CC1	11.8 µM (active)
2. COc1ccc(C(=O)OC(C)C(=O)NC(C)CCc2ccccc2)cc1[N+](=O)[O-] (stereo not given)	17.9 µM (active)
3. Cc1c(Br)c([N+](=O)[O-])nn1CCCC(=O)N1CCN(c2ccccc2)CC1	13.1 µM (active)
4. O=C(COC(=O)c1cc([N+](=O)[O-])ccc1N1CCOCC1)NCc1ccc(F)cc1	1.33 µM (active)
5. CC(C)(C)c1ccc(C(=O)N2CCC2(C)C(=O)NS(=O)(=O)c2ccc(C#N)cc2)cc1 (stereo not given)	8.79 µM (active)

* * *

Parameter EC50: see the listing below.
- assay_system: Voltage-dependent T-type calcium channel subunit alpha-1H (Homo sapiens, UniProt O95180);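 also: channel activity triggered by adding a high calcium stimulation buffer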
- Assay type: functional
Calls of active or inactive are those of the source.
assay_readout: EC50

1. Cc1ccc(C)c(OCCCC(=O)Nc2nccs2)c1	3.06 µM (active)
2. Cc1ccc(-c2nc(C[S+]([O-])CC(=O)NCc3ccc(Cl)cc3)c(C)o2)cc1 (configuration not stated)	2 µM (active)
3. O=C(Nc1ccn(Cc2ccccc2F)n1)c1ccc(COc2ccc(Cl)cc2Cl)o1	10.3 µM (active)
4. Cc1nn(Cc2ccc(Cl)cc2Cl)c(C)c1NC(=O)c1ccc(COc2cc(Cl)ccc2Cl)o1	17.5 µM (active)
5. Cc1cccc(-c2noc(CN(C(=O)C(c3ccccc3)c3ccccc3)C(C)C)n2)c1	6.72 µM (active)
6. O=S(=O)(Nc1nc2ccccc2nc1Nc1ccc2c(c1)OCCO2)c1cccs1	9.65 µM (active)
7. Cc1nc(CS(=O)(=O)c2ccc(Cl)cc2)cc(Sc2ccccc2Cl)n1	4.3 µM (active)
